test: compound effects on differentiated 3T3-L1 adipocyte viability – cell-based, 3T3-L1 adipocytes, calcein-AM fluorescence, 48 h, basal, profiling panel (AID 1163); conditions: 3T3-L1 adipocytes viability, higher = more signal; note: test concentration not given here
The recorded z-score of each item maps onto one of these classes: A = under 0.01, B = from 0.01 up to 0.6, C = 0.6 and over

Task: Kindly identify the class of COC(=O)c1cccc([C@H]2OC(=CC(=O)OC(C)C)C[C@@H](c3cccc(C(=O)OC)c3)O2)c1 .
Output: B

Task: Kindly identify the class of COc1ccc(C(=O)Nc2cccc(CN3C(=O)[C@]4(O[C@H](CC(=O)N5Cc6ccccc6C[C@H]5CO)[C@@H]([Si](C)(C)c5ccc(OC)cc5)[C@@H]4C)c4ccccc43)c2)cc1 .
Output: C

Task: Kindly identify the class of COC(=O)[C@@]1(Cc2ccccc2)N=C(c2ccc(OCCCO)cc2)O[C@H]1c1ccccc1CN=[N+]=[N-] .
Output: A

Task: Kindly identify the class of COC(=O)[C@@]1(Cc2ccc(OC)cc2)[C@H]2c3cc(C(=O)N4CCCC4)n(Cc4ccc(C(F)(F)F)nc4)c3C[C@H]2CN1C(=O)c1ccccc1 .
Output: B

Task: Kindly identify the class of Cc1ccc(S[C@]2(C(=O)NC(C)C)CC(=O)N(C3CCCCC3)[C@@H]2c2ccc(CO)cc2I)cc1 .
Output: B

Task: Kindly identify the class of C=C(CCCC)C(=O)CC[C@@H](OC(=O)c1ccccc1-c1ccccc1C(=O)O)c1ccccc1OCCO .
Output: C

Task: Kindly identify the class of C=C(C)[C@@H]1CC=C(C(O)C2C=CC3C(=O)N(C)C(=O)C3N2Nc2ccc([N+](=O)[O-])cc2[N+](=O)[O-])CC1 (stereo partly specified) .
Output: A

Task: Kindly identify the class of CCOC(=O)c1cn(C[C@H](Cc2ccccc2)NC(=O)N[C@H](CO)CCc2oc(C(C)=O)c(C(=O)OC)c2C(=O)OC)nn1 .
Output: C

Task: Kindly identify the class of CC(C)N1C(=O)C[C@@](C(=O)NCCN2CCOCC2)(c2ccc([N+](=O)[O-])cc2)[C@H]1c1ccc(CO)cc1 .
Output: A

Task: Kindly identify the class of CCCC[C@H]1C[C@@H]1[C@@H]1N(C(C)=O)[C@H](c2cccc(OC)c2)CC12CC2 .
Output: A

Task: Kindly identify the class of COc1ccc(C(O)C2C=CC3C(=O)NC(=O)C3N2Nc2ccc(Cl)cc2Cl)c2ccccc12 (stereo unspecified) .
Output: B

Task: Kindly identify the class of COC(=O)[C@@]1(Cc2ccc(F)cc2)[C@H]2c3cc(C(=O)N4CCCC4)n(Cc4ccccn4)c3C[C@H]2CN1C(=O)c1ccccc1 .
Output: A

Task: Kindly identify the class of CCCC[C@H]1OB(O)C[C@H]2C1=C(COc1ccccc1)C[C@H]1C(=O)C=CC(=O)[C@H]12 .
Output: A

Task: Kindly identify the class of COCCOC(=O)N1C(=O)[C@@]2(c3cc(C#CCC(C(=O)OC)C(=O)OC)ccc31)[C@H](c1ccc(O)cc1)N1[C@H](c3ccccc3)[C@H](c3ccccc3)OC(=O)[C@H]1[C@@H]2C(=O)Nc1nc2ccccc2s1 .
Output: C

Task: Kindly identify the class of O=C(NCc1ccc(F)cc1)[C@H]1C[C@H]2C(=O)N3CCC[C@H]3C(=O)N2[C@H]1c1ccc(O)cc1 .
Output: C

Task: Kindly identify the class of CC1CC/C=C\[C@H]2OC34C=CCN(CCN5CCOCC5)C(=O)[C@H]3N(CCCO)C(=O)[C@@H]4C2C(=O)O1 (stereo partly specified) .
Output: B

Task: Kindly identify the class of C=C(COC)C(=O)CC[C@@H](OC(C)=O)c1ccccc1OCCO .
Output: C

Task: Kindly identify the class of O=C1O[C@H](c2ccccc2)[C@H](c2ccccc2)N2[C@H]1[C@@H](C(=O)O)[C@]1(C(=O)Nc3ccc(C#CCCO)cc31)[C@H]2c1ccc(OCCO)cc1 .
Output: C

Task: Kindly identify the class of COCC(=C=CC[C@H](O)c1ccccc1OCCO)C[C@H](O)COCc1ccccc1 .
Output: B

Task: Kindly identify the class of COCCCNC(=O)[C@@]1(Sc2ccc(C)cc2)CC(=O)N(Cc2ccccc2C(F)(F)F)[C@@H]1c1ccc(CO)cc1I .
Output: B

This collection of values is drawn from PubChem BioAssay.
